# experimental system: human GPR40 (Homo sapiens)
# Construct: expressed in transfected cells; host or cells: CHO cells stably transfected with GPR40 and Aequorin
# protocol details: Cell-based aequorin assay
# assay conditions: CHO cells stably transfected with GPR40 and aequorin; 0.01% HSA
Measured EC50, listed per entry.

{"columns": ["compound", "EC50"],
 "data": [
  ["COc1ccc(F)c(-c2ccc(COc3ccc4c(c3)[C@]3(CC4)C[C@H]3C(=O)O)cc2[C@H]2CCCCC2(C)C)c1 (single isomer, unassigned)", "10 to 100 nM"],
  ["COc1ccc(F)c(-c2ccc(COc3ccc4c(c3)[C@]3(CCC4)C[C@H]3C(=O)O)cc2[C@H]2CCCC2(C)C)c1 (single isomer, unassigned)", "10 to 100 nM"],
  ["COc1ccc(F)c(-c2ccc(COc3ccc4c(c3F)[C@]3(CCC4)C[C@H]3C(=O)O)cc2[C@H]2CCCC2(C)C)c1 (single isomer, unassigned)", "10 to 100 nM"],
  ["COc1ccc(F)c(-c2ccc(COc3ccc4c(c3)[C@]3(CC4)C[C@H]3C(=O)O)cc2C2=CCCC2(C)C)c1", "100 to 1000 nM"],
  ["COc1ccc(F)c(-c2ccc(COc3ccc4c(c3)[C@]3(CC4)C[C@H]3C(=O)O)cc2C2=CCCC2)c1", "100 to 1000 nM"],
  ["COc1cc(-c2cc(F)c(COc3ccc4c(c3)[C@]3(CCC4)C[C@H]3C(=O)O)cc2[C@H]2CCCC2(C)C)c(F)cn1 (single isomer, unassigned)", "10 to 100 nM"],
  ["CO[C@@H](c1cc(COc2ccc3c(c2)[C@]2(CCC3)C[C@H]2C(=O)O)ccc1-c1cncc(F)c1)C(C)(C)C (racemic)", "1000 to 10000 nM"],
  ["CO[C@@H](c1cc(COc2ccc3c(c2)[C@]2(CCC3)C[C@H]2C(=O)O)ccc1-c1ccnc(C(F)(F)F)c1)C(C)(C)C (racemic)", "1000 to 10000 nM"],
  ["CO[C@@H](c1cc(COc2ccc3c(c2)[C@]2(CCC3)C[C@H]2C(=O)O)ccc1Br)C(C)(C)C (racemic)", "1000 to 10000 nM"],
  ["COc1ccc(F)c(-c2ccc(COc3ccc4c(c3)[C@]3(CC4)C[C@H]3C(=O)O)cc2[C@H]2CCCC2(C)C)c1 (single isomer, unassigned)", "10 to 100 nM"],
  ["COc1cc(-c2ccc(COc3cc4c(cn3)CC[C@]43C[C@H]3C(=O)O)cc2[C@@H](OC)C(C)(C)C)c(F)cn1 (single isomer, unassigned)", "100 to 1000 nM"],
  ["COc1cc(-c2cc(F)c(COc3ccc4c(c3F)[C@]3(CCC4)C[C@H]3C(=O)O)cc2[C@H]2CCCC2(C)C)c(F)cn1 (single isomer, unassigned)", "100 to 1000 nM"]
]}

----------
Measured pEC50, listed per entry.
# experimental system: human GPR40 (Homo sapiens)
# Construct: expressed in transfected cells; host or cells: CHO cells stably transfected with GPR40 and Aequorin
# protocol details: Cell-based aequorin assay
# assay conditions: CHO cells stably transfected with GPR40 and aequorin; 0.01% HSA
# Protocol: Cell-based aequorin assays were employed to characterize the modulatory activity of compounds on the GPR40 signaling pathway. In an exemplary assay, CHO cells were stably transfected with both GPR40 and Aequorin (Euroscreen). Cells were detached from the tissue culture dish with 2 mL of trypsin (0.25% (w/v)). […] Aequorin luminescence measurements were made using an EG&G Berthold 96-well luminometer, and the response was measured over a 20 second interval after cells and compounds were mixed. […]
pEC50: −log10 of the molar value.

{"columns": ["molecule", "pEC50"],
 "data": [
  ["COc1ccc(F)c(-c2ccc(COc3ccc4c(c3)C3(CC4)CCC3C(=O)O)cc2C(OC)C(C)(C)C)c1 (single isomer, unassigned) [Example 147]", "6.00 to 7.00"],
  ["COc1ccc(F)c(-c2ccc(COc3cc(F)c4c(c3F)[C@]3(CC4)C[C@H]3C(=O)O)cc2[C@H]2CCCC2(C)C)c1 (single isomer, unassigned)", "6.00 to 7.00"],
  ["COc1cc(-c2ccc(COc3ccc4c(c3F)[C@]3(CC4)C[C@H]3C(=O)O)cc2[C@@H]2CCCC2(C)C)c(F)cn1 (single isomer, unassigned)", "6.00 to 7.00"],
  ["COc1cc(-c2ccc(COc3ccc4c(c3)[C@]3(CCC4)C[C@H]3C(=O)O)cc2[C@@H]2CCCC2(C)C)c(F)cn1", "7.00 to 8.00"],
  ["CCCCOc1cc(COc2ccc3c(c2)[C@]2(CC3)C[C@H]2C(=O)O)ccc1-c1cc(OC)ccc1F", "6.00 to 7.00"],
  ["COc1ccc(F)c(-c2ccc(COc3ccc4c(c3)[C@]3(CCC4)C[C@H]3C(=O)O)cc2[C@@H](OC)C(C)(C)C)c1 (single isomer, unassigned)", "7.00 to 8.00"],
  ["COc1cc(-c2ccc(COc3ccc4c(c3)[C@]3(CCC4)C[C@H]3C(=O)O)cc2[C@H](OC)C(C)(C)C)c(Cl)cn1 (racemic)", "6.00 to 7.00"],
  ["COc1ccc(F)c(-c2ccc(COc3ccc4c(c3)[C@]3(CCC4)C[C@H]3C(=O)O)cc2C2=CCCC2(C)C)c1", "6.00 to 7.00"],
  ["COc1ccc(F)c(-c2ccc(COc3cc(F)c4c(c3F)[C@]3(CC4)C[C@@H]3C(=O)O)cc2[C@H]2CCCC2(C)C)c1 (single isomer, unassigned)", "< 5.00"],
  ["COc1cc(-c2ccc(COc3cc4c(cn3)CC[C@@]43C[C@@H]3C(=O)O)cc2[C@@H](OC)C(C)(C)C)c(F)cn1 (single isomer, unassigned)", "6.00 to 7.00"],
  ["COc1ccc(COc2ccc3c(c2)[C@]2(CCC3)C[C@H]2C(=O)O)cc1[C@@H]1CCCC1(C)C (single isomer, unassigned)", "5.00 to 6.00"],
  ["COc1ccc(F)c(-c2ccc(COc3ccc4c(c3)[C@]3(CC4)C[C@H]3C(=O)O)cc2-c2nncn2C(C)C)c1", "< 5.00"]
]}

----------
Measured pEC50, listed per entry.
# experimental system: human GPR40 (Homo sapiens, UniProt O14842)
# Construct: expressed in transfected cells; host or cells: CHO cells stably transfected with GPR40 and Aequorin
# Sequence (O14842 whole entry): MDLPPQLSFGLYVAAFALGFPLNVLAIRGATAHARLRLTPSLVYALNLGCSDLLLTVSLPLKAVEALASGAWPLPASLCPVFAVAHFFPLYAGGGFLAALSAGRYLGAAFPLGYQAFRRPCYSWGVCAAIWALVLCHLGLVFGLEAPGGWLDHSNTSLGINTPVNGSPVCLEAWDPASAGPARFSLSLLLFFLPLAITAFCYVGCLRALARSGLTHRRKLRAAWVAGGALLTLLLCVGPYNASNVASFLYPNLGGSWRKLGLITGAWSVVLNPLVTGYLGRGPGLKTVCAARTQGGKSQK
# protocol details: Cell-based aequorin assay
# assay conditions: CHO cells stably transfected with GPR40 and aequorin; 0.01% HSA
# Method: Cell-based aequorin assays were employed to characterize the modulatory activity of compounds on the GPR40 signaling pathway. In an exemplary assay, CHO cells were stably transfected with both GPR40 and Aequorin (Euroscreen). Cells were detached from the tissue culture dish with 2 mL of trypsin (0.25% (w/v)). […] Aequorin luminescence measurements were made using an EG&G Berthold 96-well luminometer, and the response was measured over a 20 second interval after cells and compounds were mixed. […]
pEC50: −log10 of the molar value.

{"columns": ["compound", "pEC50"],
 "data": [
  ["COc1ccc(F)c(-c2ccc(COc3ccc4c(c3)[C@@]3(CC4)C[C@@H]3C(=O)O)cc2C2=CCCC2(C)C)c1", "< 5.00"],
  ["COc1ccc(F)c(-c2cc(F)c(COc3ccc4c(c3)[C@]3(CCC4)C[C@H]3C(=O)O)cc2[C@H]2CCCC2(C)C)c1 (single isomer, unassigned)", "6.00 to 7.00"],
  ["C=CC1(c2cc(COc3ccc4c(c3)[C@]3(CC4)C[C@H]3C(=O)O)ccc2-c2cc(OC)ncc2F)CCCC1", "5.00 to 6.00"],
  ["COc1ccc(F)c(-c2cc(COc3ccc4c(c3)[C@]3(CC4)C[C@H]3C(=O)O)ccc2C(C)(C)C)c1", "5.00 to 6.00"],
  ["COc1cc(-c2ccc(COc3ccc4c(c3)[C@]3(CC4)C[C@H]3C(=O)O)cc2[C@@H]2CCCC2(C)C)c(F)cn1", "7.00 to 8.00"],
  ["CO[C@@H](c1cc(COc2ccc3c(c2)[C@]2(CCC3)C[C@H]2C(=O)O)ccc1-c1cncs1)C(C)(C)C (racemic)", "5.00 to 6.00"],
  ["CCCCOc1cc(COc2ccc3c(c2)[C@]2(CC3)C[C@H]2C(=O)O)ccc1-c1cccc(OC)c1", "6.00 to 7.00"],
  ["COc1ccc(F)c(-c2ccc(COc3cc(F)c4c(c3F)[C@@]3(CC4)C[C@@H]3C(=O)O)cc2[C@@H](OC)C(C)(C)C)c1 (single isomer, unassigned)", "5.00 to 6.00"]
]}

----------
# experimental system: human GPR40 (Homo sapiens, UniProt O14842)
# Construct: expressed in transfected cells; host or cells: CHO cells stably transfected with GPR40 and Aequorin
# protocol details: Cell-based aequorin assay
# assay conditions: CHO cells stably transfected with GPR40 and aequorin; 0.01% HSA
pEC50: −log10 of the molar value.

{"columns": ["compound", "experimental system", "pEC50"],
 "data": [
  ["COc1ccc(F)c(-c2ccc(COc3ccc4c(c3)[C@@]3(CC4)[C@H](C(=O)O)[C@@H]3C)cc2[C@@H]2CCCC2(C)C)c1 (single isomer, unassigned)", "human GPR40 (Homo sapiens, UniProt O14842)", "6.00 to 7.00"],
  ["COc1cc(-c2ccc(COc3ccc4c(c3F)[C@]3(CCC4)C[C@H]3C(=O)O)cc2[C@@H](OC)C(C)(C)C)c(F)cn1 (single isomer, unassigned)", "human GPR40 (Homo sapiens, UniProt O14842)", "7.00 to 8.00"],
  ["COc1ccc(F)c(-c2ccc(COc3ccc4c(c3)[C@@]3(CC4)C[C@H]3C(=O)O)cc2C2=CCCC2(C)C)c1", "human GPR40 (Homo sapiens, UniProt O14842)", "5.00 to 6.00"],
  ["COc1ccc(F)c(-c2ccc(COc3cc(F)c4c(c3F)[C@@]3(CC4)C[C@H]3C(=O)O)cc2[C@@H](OC)C(C)(C)C)c1 (single isomer, unassigned)", "human GPR40 (Homo sapiens, UniProt O14842)", "5.00 to 6.00"],
  ["COc1ccc(F)c(-c2ccc(COc3ccc4c(c3)C3(CC4)CCC3C(=O)O)cc2[C@@H]2CCCC2(C)C)c1 (single isomer, unassigned)", "human GPR40 (Homo sapiens, UniProt O14842)", "6.00 to 7.00"],
  ["COc1ccc(F)c(-c2ccc(COc3ccc4c(c3)[C@]3(CC4)C[C@H]3C(=O)O)cc2[C@@H]2CCCC2(C)C)c1 (single isomer, unassigned)", "human GPR40 (Homo sapiens, UniProt O14842)", "6.00 to 7.00"],
  ["COc1ccc(F)c(-c2ccc(COc3ccc4c(c3)[C@]3(CCC4)CC[C@@H]3C(=O)O)cc2C2=CCCC2(C)C)c1 (single isomer, unassigned)", "human GPR40 (Homo sapiens, UniProt O14842)", "6.00 to 7.00"],
  ["COc1ccc(F)c(-c2ccc(COc3cc(F)c4c(c3F)[C@]3(CC4)C[C@@H]3C(=O)O)cc2[C@@H](OC)C(C)(C)C)c1 (single isomer, unassigned)", "human GPR40 (Homo sapiens, UniProt O14842)", "5.00 to 6.00"],
  ["COc1ccc(F)c(-c2ccc(COc3ccc4c(c3)[C@@]3(CCC4)C[C@@H]3C(=O)O)cc2C2=CCCC2(C)C)c1", "human GPR40 (Homo sapiens, UniProt O14842)", "< 5.00"],
  ["COc1cc(-c2ccc(COc3ccc4c(c3F)[C@]3(CC4)C[C@H]3C(=O)O)cc2[C@@H](OC)C(C)(C)C)c(F)cn1 (single isomer, unassigned)", "human GPR40 (Homo sapiens, UniProt O14842)", "7.00 to 8.00"],
  ["COc1cc(-c2ccc(COc3ccc4c(c3)[C@]3(CCC4)CC[C@@H]3C(=O)O)cc2[C@@H]2CCCC2(C)C)c(F)cn1 (single isomer, unassigned)", "human GPR40 (Homo sapiens, UniProt O14842)", "5.00 to 6.00"]
]}

Reference for the values: patent US8748462B2
